B1: LINE1-full (parent)
chain: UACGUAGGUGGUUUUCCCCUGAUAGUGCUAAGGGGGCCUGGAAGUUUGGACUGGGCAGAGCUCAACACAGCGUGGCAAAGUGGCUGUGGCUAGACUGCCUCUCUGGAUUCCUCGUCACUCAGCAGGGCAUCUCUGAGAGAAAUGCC

Variants of: B1
protocol-details: self-cleavage, relative activity (ratio to wild type); higher = more cleavage; in vitro, sequencing; the parent is a self-cleaving ribozyme
Give measured self-cleavage for each item. Keep answers brief.
Answers are plain numbers.

Use these answered entries as a reference point.
variant-notation: G114A G122U
recorded-number: 1.5
//
variant-notation: G40C
recorded-number: 1.12
//
variant-notation: A59G U100A
recorded-number: 0.07
//
variant-notation: A22G U26G
recorded-number: 0.75
//
variant-notation: A57C U102C
recorded-number: 0.1

Would you be so kind as to report self-cleavage for each listed record?
1. U5A G36C
2. U9C U87C
3. U12A U102C
4. U20G U47A
5. A42C A67G
6. C68U G74A

1. 1.16
2. 0.42
3. 1.42
4. 0.51
5. 0.52
6. 0.2
